- test: gradient 5% acetonitrile 3 min, to 50% in 2 min, to 85% in 15 min, held 3 min, 100 µL/min
- experimental-setup: column: Zorbax Extend-C18 2.1 x 50 mm; eluents: water / acetonitrile, 0.1% formic acid
Categorize each record by its RP-LC retention time using group A = under 700 s, group B = from 700 s up to 900 s, group C = 900 s and over

{"compound": "O=C(C1=CCN(Cc2cccc(F)c2)CC1)N1CCN(c2ccccc2)CC1", "label-value": "group A"}
{"compound": "Cc1ccc(NC(=O)N2CCC(OC3CCN(S(C)(=O)=O)CC3)CC2)c(C)c1", "label-value": "group B"}
{"compound": "O=C(NCCc1ccccc1)C1CC(=O)N(CCc2c[nH]c3ccc(F)cc23)C1 (centres undefined)", "label-value": "group B"}
{"compound": "Cc1ccc(-c2cc3c(=O)n(Cc4nc(-c5ccc(F)cc5)no4)ccn3n2)cc1", "label-value": "group C"}
{"compound": "O=C(Nc1nc(-c2ccc([N+](=O)[O-])cc2)cs1)C1=COCCO1", "label-value": "group B"}
{"compound": "CC(=O)Nc1ccc(C2(C(=O)NCc3ccccc3C)CCC2)cc1", "label-value": "group B"}
{"compound": "Cc1cccc(-c2noc(Cc3nc(-c4ccccc4)cs3)n2)c1", "label-value": "group C"}
{"compound": "Cc1cc(=O)n(CC(=O)Nc2ccc(F)cc2F)c(N2CCCCC2)n1", "label-value": "group A"}
{"compound": "Cc1nc(-c2ccccc2)cc2nn(CC(=O)N3CCCc4ccccc43)c(=O)n12", "label-value": "group C"}
{"compound": "Cc1ccn2cc(C(=O)NC3CCN(Cc4ccccc4)CC3)nc2c1", "label-value": "group B"}
{"compound": "CCOc1ccccc1NC(=O)Cn1c(N2CCOCC2)nc(COC)cc1=O", "label-value": "group C"}
{"compound": "O=C(Nc1ccc(OC(F)(F)F)cc1)C1CCCN(c2cc(-n3cccn3)ncn2)C1 (centres undefined)", "label-value": "group C"}
{"compound": "CN(Cc1cnc2nc(N)nc(N)c2n1)c1ccc(C(=O)NC(CCC(=O)O)C(=O)O)cc1 (centres undefined)", "label-value": "group A"}
